Parameter IC50: see the listing below.
molecular target: NaV1.6 (Homo sapiens (Human)); assay: Sodium Influx Assay (Flux), NaV1.6; details: read-out: Flux NaV1.6 IC50; Trex HEK293 cells, ANG2 dye; arithmetic mean
Sequence (Q9UQD0 whole entry, looked up): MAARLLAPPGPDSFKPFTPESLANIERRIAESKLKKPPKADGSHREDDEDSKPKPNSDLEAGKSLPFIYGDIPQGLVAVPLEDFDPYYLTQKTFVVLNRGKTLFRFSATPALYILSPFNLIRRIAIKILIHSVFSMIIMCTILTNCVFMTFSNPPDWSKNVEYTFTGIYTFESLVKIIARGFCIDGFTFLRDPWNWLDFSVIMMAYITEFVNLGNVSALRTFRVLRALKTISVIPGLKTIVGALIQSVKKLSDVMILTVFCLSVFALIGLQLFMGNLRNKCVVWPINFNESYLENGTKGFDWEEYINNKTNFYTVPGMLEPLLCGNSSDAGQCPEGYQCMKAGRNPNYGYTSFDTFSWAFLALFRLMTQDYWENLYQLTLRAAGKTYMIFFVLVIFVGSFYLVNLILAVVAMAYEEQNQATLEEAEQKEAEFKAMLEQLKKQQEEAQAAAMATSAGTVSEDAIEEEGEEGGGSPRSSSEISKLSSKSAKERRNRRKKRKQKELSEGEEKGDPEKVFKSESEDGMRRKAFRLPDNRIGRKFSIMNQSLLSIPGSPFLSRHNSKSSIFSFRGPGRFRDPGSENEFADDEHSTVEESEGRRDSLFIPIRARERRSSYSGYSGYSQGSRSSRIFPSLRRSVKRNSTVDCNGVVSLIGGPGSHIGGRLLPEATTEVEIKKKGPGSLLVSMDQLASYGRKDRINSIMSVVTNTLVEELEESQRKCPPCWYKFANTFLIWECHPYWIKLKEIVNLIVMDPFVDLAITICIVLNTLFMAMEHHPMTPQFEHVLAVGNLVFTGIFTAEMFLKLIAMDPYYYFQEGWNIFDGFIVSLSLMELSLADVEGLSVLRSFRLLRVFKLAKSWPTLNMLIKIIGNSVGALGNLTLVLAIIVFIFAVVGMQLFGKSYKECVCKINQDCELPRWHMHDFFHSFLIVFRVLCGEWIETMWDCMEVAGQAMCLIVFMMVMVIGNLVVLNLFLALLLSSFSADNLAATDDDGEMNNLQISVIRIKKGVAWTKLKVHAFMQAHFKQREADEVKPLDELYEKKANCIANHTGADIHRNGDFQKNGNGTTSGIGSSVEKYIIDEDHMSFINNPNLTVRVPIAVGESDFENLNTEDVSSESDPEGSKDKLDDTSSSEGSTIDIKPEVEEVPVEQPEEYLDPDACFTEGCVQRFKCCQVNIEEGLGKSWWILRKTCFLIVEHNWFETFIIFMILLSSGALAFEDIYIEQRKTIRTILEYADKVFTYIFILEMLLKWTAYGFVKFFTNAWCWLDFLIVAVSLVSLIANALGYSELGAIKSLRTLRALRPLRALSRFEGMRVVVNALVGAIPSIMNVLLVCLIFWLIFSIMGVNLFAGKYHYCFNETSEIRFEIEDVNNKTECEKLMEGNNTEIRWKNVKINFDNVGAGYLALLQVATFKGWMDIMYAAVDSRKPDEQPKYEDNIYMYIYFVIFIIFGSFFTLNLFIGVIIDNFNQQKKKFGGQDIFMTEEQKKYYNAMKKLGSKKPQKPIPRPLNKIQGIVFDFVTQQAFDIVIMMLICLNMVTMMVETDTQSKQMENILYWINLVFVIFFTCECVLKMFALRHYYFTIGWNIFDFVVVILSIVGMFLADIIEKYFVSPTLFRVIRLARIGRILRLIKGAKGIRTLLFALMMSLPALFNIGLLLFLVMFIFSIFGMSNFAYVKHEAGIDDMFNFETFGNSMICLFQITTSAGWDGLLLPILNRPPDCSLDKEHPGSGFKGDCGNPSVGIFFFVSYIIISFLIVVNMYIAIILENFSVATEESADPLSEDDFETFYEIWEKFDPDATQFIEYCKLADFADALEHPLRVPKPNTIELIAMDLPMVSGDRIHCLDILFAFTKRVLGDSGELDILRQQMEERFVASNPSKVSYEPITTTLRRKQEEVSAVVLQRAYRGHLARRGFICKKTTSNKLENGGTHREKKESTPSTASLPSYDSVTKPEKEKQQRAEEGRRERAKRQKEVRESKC
Sequence (Q07699 whole entry partner, looked up): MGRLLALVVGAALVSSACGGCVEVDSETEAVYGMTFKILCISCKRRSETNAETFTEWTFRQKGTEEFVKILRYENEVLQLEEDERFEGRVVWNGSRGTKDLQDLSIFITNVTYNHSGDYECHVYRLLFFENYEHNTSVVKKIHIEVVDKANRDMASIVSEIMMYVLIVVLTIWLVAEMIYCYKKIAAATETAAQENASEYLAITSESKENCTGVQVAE
Counter-ions that a name gives are not always drawn.
Field: numeric (nM). Do not append units.

Guide cases for IC50, answers given:
molecule	IC50 [nM]
Cc1cc(CN2CC[C@H](N(C)c3cc(F)c(S(=O)(=O)Nc4cscn4)cc3C)C2)ns1 [Example 121, formate]	1470
CN(c1cc(F)c(S(=O)(=O)Nc2nccs2)cc1Cl)[C@H]1CCN(Cc2ccccc2)C1 [Example 39, bis(trifluoroacetic acid) salt]	732
Cc1cc(S(=O)(=O)Nc2cscn2)c(F)cc1O[C@@]1(C)CCN(Cc2ccccc2)C1 [Example 159, formate]	178

I would be grateful if you could share the reported IC50 for Cc1cc(S(=O)(=O)Nc2cscn2)c(F)cc1N(C)[C@H]1CCN(Cc2nc(C(F)(F)F)cs2)C1 [Example 152] .
1700

Could you tell me which IC50 is on file for Cc1cc(S(=O)(=O)Nc2cscn2)c(F)cc1N(C)[C@H]1CCN(Cc2csc(C(F)(F)F)n2)C1 [Example 137] ?
217

Which IC50 value belongs to CN(c1ccc(S(=O)(=O)Nc2cscn2)cc1C(F)(F)F)[C@H]1CCN(Cc2ccccc2)C1 [Example 294, formate] ?
2350

May I ask what IC50 has been recorded for Cc1nc(CN2CC[C@H](N(C)c3cc(F)c(S(=O)(=O)Nc4cscn4)cc3C)C2)co1 [Example 131] ?
2860

Form field: reported IC50 of C[C@@]1(Nc2ccc(S(=O)(=O)Nc3cscn3)cc2Cl)CCN(Cc2ccccc2)C1 [Example 225, formate]
3900

Give its IC50 value. Item: Cc1cccc(CN2CC[C@H](N(C)c3cc(F)c(S(=O)(=O)Nc4cscn4)c(F)c3C)C2)n1 [Example 104, formate]
26

For the molecule shown here, O=S(=O)(Nc1nccs1)c1ccc(OC2CCN(CC3CCCCC3)CC2)c(Cl)c1 [Example 6, 2,2,2-trifluoroacetate] , give the reported IC50.
7520

Consider the molecule shown here: Cc1cccc(CN2CC[C@H](N(C)c3ccc(S(=O)(=O)Nc4ncns4)cc3Cl)C2)c1F [Example 34, 2,2,2-trifluoroacetate] What is its recorded IC50?
39

Any idea what IC50 was measured for O=S(=O)(Nc1nccs1)c1cc(Cl)c(OC2CCN(Cc3ccccc3)CC2)cc1F [Example 47, 2,2,2-trifluoroacetate] ?
943

Bench note: what IC50 did CN(c1ccc(S(=O)(=O)Nc2ncns2)cc1Cl)[C@H]1CCN(Cc2cc(F)ccc2F)C1 [Example 325] show?
260

Consider the molecule Cc1c(N(C)[C@H]2CCN(Cc3ccccc3)C2)ccc(S(=O)(=O)Nc2cscn2)c1F [Example 321, 2,2,2-trifluoroacetate] and give its measured IC50.
354
